Test system: tau stress granules
Experiment: SY5Y-tT1 tau arsenite assay (tau stress granules per cell)
Format: cell-based
Conditions: SY5Y-tT1 cells, 2 hours compound, 90 minutes arsenite, 50% reduction of granules per cell, read-out: IC50, Inhibitor Activity of Tau Stress Granules
Reported IC50 values for a set of molecules

INSERT INTO assay_data (molecule, reported_property, data_value) VALUES
  ('Cc1cc(-c2ccc(C3CCN(C)CC3)c(OC(F)(F)F)c2)sc1C(=O)N1CC[C@H](N)C1 [Compound 112]', 'IC50', '2000 to 6000 nM'),
  ('Cc1cc(-c2ccc(C3CCN(C4CCOCC4)CC3)cc2)sc1C(=O)N1CC[C@H](N)C1 [Compound 178]', 'IC50', '< 500 nM'),
  ('Cc1cc(-c2cnc(C3CCN(C)CC3)nc2)sc1C(=O)N1CC[C@H](N)C1 [Compound 124]', 'IC50', '< 500 nM');

Measured IC50, Cc1cc(-c2ccc(C3CCN(C(C)C)CC3)cc2)sc1C(=O)N1CC[C@H](N)C1 [Compound 183] : < 500 nM

###

Reported pIC50 values for a set of compounds
Tested on: TDP-43 aggregation
Assay: TDP-43 aggregation assay in SY5Y TDP-43WT cells (high content imaging)
Assay type: cell-based
Settings: Homo sapiens, tetracycline induction 24 hrs, 1 hour compound pre-treatment, sodium arsenite 23 hrs, 8-point dose curve, percentage of cells with TDP-43 aggregates, read-out: IC50, Inhibition of TDP-43 Aggregation
pIC50: −log10 of the molar value.

INSERT INTO assay_data (compound, data_value) VALUES
  ('Cc1cc(-c2ccc(C3CCN(C4CN(C)C4)CC3)cc2)sc1C(=O)N1CC[C@H](N)C1 [Compound 173]', '> 6.30'),
  ('COC(C)(C)CN1CCC(c2ccc(-c3cc(C)c(C(=O)N4CC[C@H](N)C4)s3)cc2F)CC1 [Compound 254]', '> 6.30'),
  ('Cc1cc(-c2ccc(C3CCN(C)CC3)c(F)c2)sc1C(=O)N1CC[C@H](N)C1 [Compound 136]', '> 6.30'),
  ('Cc1cc(-c2ccc3c(c2)CCC3N(C)C)sc1C(=O)N1CC[C@H](N)C1 (stereo partly drawn) [Compound 188]', '> 6.30'),
  ('Cc1cc(-c2ccc(C3CCN(C4CCOCC4)CC3)c(Cl)c2)sc1C(=O)N1CC[C@H](N)C1 [Compound 287]', '> 6.30'),
  ('CNCc1ccc(-c2cc(C)c(C(=O)N3CC[C@H](N)C3)s2)cc1 [Compound 218]', '> 6.30'),
  ('Cc1cc(-c2ccc(C3CCN(C4CCNCC4)CC3)cc2)sc1C(=O)N1CC[C@H](N)C1 [Compound 177]', '6.00 to 6.30'),
  ('C=CCc1cc(-c2ccc(C3CCN(C4CCOCC4)CC3)cc2)sc1C(=O)N1CC[C@H](N)C1 [Compound 286]', '> 6.30');

Measured pIC50, COc1cc(-c2cc(C)c(C(=O)N3CC[C@H](N)C3)s2)ccc1C1CCN(C2CCOCC2)CC1 [Compound 260] : 5.70 to 6.00

Measured pIC50, N[C@H]1CCN(C(=O)c2sc(-c3ccc(C4CCN(C5CCC5)CC4)c(F)c3)cc2Cl)C1 [Compound 271] : > 6.30

Measured pIC50, COCCCN1CCC(c2ccc(-c3cc(C)c(C(=O)N4CC[C@H](N)C4)s3)cc2F)CC1 [Compound 275] : > 6.30

Measured pIC50, N[C@H]1CCN(C(=O)c2sc(-c3ccc(C4CCN(C5CCOCC5)CC4)c(Cl)c3)cc2OC(F)(F)F)C1 [Compound 252] : 5.00 to 5.22

###

Test system: TDP-43 aggregation
Experiment: TDP-43 aggregation assay in SY5Y TDP-43WT cells (high content imaging)
Type: cell-based
Settings: Homo sapiens, tetracycline induction 24 hrs, 1 hour compound pre-treatment, sodium arsenite 23 hrs, 8-point dose curve, percentage of cells with TDP-43 aggregates, read-out: IC50, Inhibition of TDP-43 Aggregation
pIC50: −log10 of the molar value.
reported-property: pIC50

Sample answers from the record:
INSERT INTO results (compound, reported_property, data_value) VALUES
  ('Cc1cc(-c2ccc(C3CCN(C4CCCC4)CC3)c(F)c2)sc1C(=O)N1CC[C@H](N)C1 [Compound 278]', 'pIC50', '> 6.30'),
  ('Cc1cc(-c2ccc(C3CCN(C4CCC4)CC3)cc2)sc1C(=O)N1CC[C@H](N)C1 [Compound 181]', 'pIC50', '> 6.30'),
  ('Cc1cc(-c2ccc(C3=CCCCC3)cc2)sc1C(=O)N1CC[C@H](N)C1 [Compound 224]', 'pIC50', '5.00 to 5.22'),
  ('Cc1cc(-c2ccc(C3CCN(C(C)C)CC3)cc2)sc1C(=O)N1CC[C@H](N)C1 [Compound 183]', 'pIC50', '> 6.30'),
  ('CCc1ccc(-c2cc(C)c(C(=O)N3CC[C@H](N)C3)s2)cc1 [Compound 228]', 'pIC50', '6.00 to 6.30'),
  ('Cc1cc(-c2ccc3c(c2)CCCO3)sc1C(=O)N1CC[C@H](N)C1 [Compound 229]', 'pIC50', '6.00 to 6.30');

Measured pIC50, Cc1cc(-c2ccc(C3CCN(C4CSC4)CC3)cc2)sc1C(=O)N1CC[C@H](N)C1 [Compound 172] : > 6.30

Measured pIC50, Cc1cnc(-c2cc(C)c(C(=O)N3CC[C@H](N)C3)s2)cn1 [Compound 223] : 5.70 to 6.00

###

System: TDP-43 aggregation
Test: TDP-43 aggregation assay in SY5Y TDP-43WT cells (high content imaging)
Assay type: cell-based
Conditions: Homo sapiens, tetracycline induction 24 hrs, 1 hour compound pre-treatment, sodium arsenite 23 hrs, 8-point dose curve, percentage of cells with TDP-43 aggregates, read-out: IC50, Inhibition of TDP-43 Aggregation
Experimental: Exemplary compounds disclosed herein were evaluated for efficacy in inhibiting TDP-43 inclusions cellular imaging-based assays. The cellular model was in human neuroblastoma SH SYSY cells (ATCC, cat #: CRL-2266). […] Compound inhibition of TDP-43 aggregation was tested in an 8-point dose curve in 96-well format. […] The inhibitory effect on TDP-43 aggregation was measured using CellInsight CX7 high content imager (ThermoFisher). […]
reported-property: IC50

Sample answers from the record:
INSERT INTO results (molecule, data_value) VALUES
  ('CCCc1ccc(-c2cc(C)c(C(=O)N3CC[C@H](N)C3)s2)cc1 [Compound 227]', '2000 to 6000 nM'),
  ('Cc1cc(-c2ccc(C(C)C)cc2)sc1C(=O)N1CC[C@H](N)C1 [Compound 230]', '2000 to 6000 nM');

Measured IC50, Cc1cc(-c2ccc(-c3ccccc3)cc2)sc1C(=O)N1CC[C@H](N)C1 [Compound 234] : 2000 to 6000 nM

Measured IC50, COCCCN1CCC(c2ccc(-c3cc(Cl)c(C(=O)N4CC[C@H](N)C4)s3)cc2F)CC1 [Compound 268] : < 500 nM

Measured IC50, COCCN1CCC(c2ccc(-c3cc(Cl)c(C(=O)N4CC[C@H](N)C4)s3)cc2Cl)CC1 [Compound 253] : < 500 nM

###

Reported IC50 values for a set of compounds
Test system: TDP-43 aggregation
Test: TDP-43 aggregation assay in SY5Y TDP-43WT cells (high content imaging)
Format: cell-based
Details: Homo sapiens, tetracycline induction 24 hrs, 1 hour compound pre-treatment, sodium arsenite 23 hrs, 8-point dose curve, percentage of cells with TDP-43 aggregates, read-out: IC50, Inhibition of TDP-43 Aggregation

Sample answers from the record:
INSERT INTO assay_data (compound, data_value) VALUES
  ('Cc1cc(-c2ccc(C3CCN(C4CCCC4)CC3)cc2)sc1C(=O)N1CC[C@H](N)C1 [Compound 180]', '< 0.5 µM'),
  ('CCc1cc(-c2ccc(C3CCN(C4CCOCC4)CC3)cc2)sc1C(=O)N1CC[C@H](N)C1 [Compound 289]', '< 0.5 µM'),
  ('COc1cc(-c2ccc(C3CCN(C4CCOCC4)CC3)c(F)c2)sc1C(=O)N1CC[C@H](N)C1 [Compound 292]', '0.5 to 1 µM'),
  ('Cc1cc(-c2ccc3c(c2)N(C)CCC3)sc1C(=O)N1CC[C@H](N)C1 [Compound 196]', '6 to 10 µM'),
  ('Cc1cc(-c2ccc(C3CCN(C)CC3)cc2)sc1C(=O)N1CC[C@H](N)C1 [Compound 201]', '< 0.5 µM');

Reported TDP-43 aggregation IC50 for item Cc1cc(-c2ccc(C3CCC3)cc2)sc1C(=O)N1CC[C@H](N)C1 [Compound 232] was 0.5 to 1 µM

Reported TDP-43 aggregation IC50 for item C#CCOCCOCCN1CCC(c2ccc(-c3cc(C)c(C(=O)N4CC[C@H](N)C4)s3)cc2)CC1 [Compound 290] was < 0.5 µM

Reported TDP-43 aggregation IC50 for item Cc1cc(-c2ccc(C3CCCCC3)cc2)sc1C(=O)N1CC[C@H](N)C1 [Compound 238] was 6 to 10 µM
